Tested on: 171881-019-R-J1-PDC complex spheroid growth, % test/control;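 also: spheroids exposed to compounds for 7 days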
Test: Anticancer human tumor 171881-019-R-J1-PDC patient-derived invasive breast carcinoma cell line growth inhibition [Asc]
Details: second compound 10 µM; first compound 0.1 µM; hits give low values
Text: Multicellular complex tumor spheroid response to apoptosis pathway targeting inhibitors Alrizomadlin, Pelcitoclax, and Dasminapant in combination with a variety of drugs and investigational agents in selected tumor cell lines […] Compounds. […] If the clinical Cmax for an agent had not been determined, the highest concentration tested was 10 microM. […]
Below, each entry is listed alongside its reported viability, T/C.
property.name: viability, T/C (%)

>>> reading("Cn1ncnc1[C@H]1c2n[nH]c(=O)c3cc(F)cc(c23)N[C@@H]1c1ccc(F)cc1 + Cc1c(S(C)(=O)=O)c(-c2cc(F)cc(N3CCN(c4ccc(NS(=O)(=O)c5ccc(NC(CCN6CCC(C(=O)OCCCP(=O)(O)O)CC6)CSc6ccccc6)c(S(=O)(=O)C(F)(F)F)c5)cc4)CC3)c2)c(-c2ccc(Cl)cc2)n1C(C)C")
181
>>> reading("NC1CCC(NC2CC2c2ccccc2)CC1 (stereo not drawn) + Cc1c(S(C)(=O)=O)c(-c2cc(F)cc(N3CCN(c4ccc(NS(=O)(=O)c5ccc(NC(CCN6CCC(C(=O)OCCCP(=O)(O)O)CC6)CSc6ccccc6)c(S(=O)(=O)C(F)(F)F)c5)cc4)CC3)c2)c(-c2ccc(Cl)cc2)n1C(C)C")
92.3
>>> reading("O=C(c1ccc(F)c(F)c1Nc1ccc(I)cc1F)N1CC(O)([C@@H]2CCCCN2)C1 + Cc1c(S(C)(=O)=O)c(-c2cc(F)cc(N3CCN(c4ccc(NS(=O)(=O)c5ccc(NC(CCN6CCC(C(=O)OCCCP(=O)(O)O)CC6)CSc6ccccc6)c(S(=O)(=O)C(F)(F)F)c5)cc4)CC3)c2)c(-c2ccc(Cl)cc2)n1C(C)C")
54.9

Reference source for all entries: PubChem BioAssay AID1963428
